The reported numbers originate from patent US20120301492A1.

target: mouse B6 class I antigens (Mouse MHC Class I; D^b or K^b molecules on the surface of RMA-S cells); assay: RMA-S class I stabilisation, flow cytometry with FITC anti-D^b or anti-K^b; % increase of MFI over medium alone, peptide 25 ug/ml
READOUT: Binding Affinity to Mouse MHC Class I (%)

Worked cases, Binding Affinity to Mouse MHC Class I given:
BINDER	UNITS LABEL	Binding Affinity to Mouse MHC Class I
ALLPAVPSL [WT1 peptide human p10-18 (…)]	%	2.2
YSSDNLYQM [WT1 peptide p221-229 (…)]	%	0.8
CMTWNQMNL [WT1 peptide p235-243 (…)]	%	33.6
NLYQMTSQL [WT1 peptide p225-233 (…)]	%	5.8
GCNKRYFKL [WT1 peptide p329-337 (…)]	%	1.2
QMTSQLECM [WT1 peptide p228-236 (…)]	%	1.2

[a] NQMNLGATL [WT1 peptide p239-247 (…)]
[b] SCLESQPAI [WT1 peptide human p136-144 (…)]
Prompt: When a and b are compared, which has the higher number for Binding Affinity to Mouse MHC Class I? Pick one and reply with its label.
Completion: b
